For each record, write down the corresponding Metabolic stability (Qh %), % hepatic blood flow.
measurement.notes: Human liver microsome (HLM) metabolic stability assay
Type: in vitro ADME
experimental.setup: human liver microsomes

Item under review: Cc1cc(COc2c(C)cccc2-c2csc(N3CC[C@@]4(C(=O)O)C[C@H]4C3)n2)c(C)c2c1CN(C1CCOCC1)CC2 . Reported Metabolic stability (Qh %), % hepatic blood flow? 61%

Item under review: CO[C@@H]1CN(c2nc(-c3cc(F)cc(C)c3OCc3ccc4c(c3C)CCN(C3COC3)CC4)cs2)CC[C@@H]1C(=O)O . Reported Metabolic stability (Qh %), % hepatic blood flow? 61%

Item under review: Cc1cccc(-c2csc(N3C[C@H]4C[C@@]4(C(=O)O)[C@@H]3C)n2)c1OCc1ccc2c(c1C)CCN(C1COC1)C2 . Reported Metabolic stability (Qh %), % hepatic blood flow? <24%

Item under review: CO[C@H]1CN(c2cccc(-c3cccc(C)c3OCc3ccc4c(c3F)CCN(C3COC3)CC4)n2)CC[C@H]1C(=O)O . Reported Metabolic stability (Qh %), % hepatic blood flow? <24%

Item under review: Cc1ccc(OCc2ccc3c(c2C)CCN(C2CCOCC2)CC3)c(-c2cccc(N3C[C@@H]4C[C@]4(C(=O)O)C3)n2)c1 . Reported Metabolic stability (Qh %), % hepatic blood flow? <24%

Item under review: Cc1ccc(OCc2ccc3c(c2C)CCN(C2CCOCC2)C3)c(-c2csc(N3CC[C@@]4(C(=O)O)C[C@H]4C3)n2)c1 . Reported Metabolic stability (Qh %), % hepatic blood flow? <24%

Item under review: O=C(O)[C@@]12CCN(c3cccc(-c4ccccc4OCc4ccc5c(c4)CCN(C4CCOCC4)C5)n3)C[C@@H]1C2 . Reported Metabolic stability (Qh %), % hepatic blood flow? <24%

Item under review: CO[C@H]1CN(c2nc(-c3cc(C)ccc3OCc3cc(C)c4c(c3C)CCN(C3CCOCC3)C4)cs2)CC[C@H]1C(=O)O . Reported Metabolic stability (Qh %), % hepatic blood flow? <24%

Item under review: COC[C@H]1N(c2nc(-c3cc(C)ccc3OCc3ccc4c(c3C)CCN(C3CCOCC3)C4)cs2)C[C@@H]2C[C@@]21C(=O)O . Reported Metabolic stability (Qh %), % hepatic blood flow? <24%

Item under review: Cc1ccc(OCc2ccc3c(c2)CCN(C2CCOCC2)C3=O)c(-c2cccc(N3CC[C@@]4(C(=O)O)C[C@H]4C3)n2)c1 . Reported Metabolic stability (Qh %), % hepatic blood flow? 52%

Item under review: CCc1cc(COc2ccc(C)cc2-c2cccc(N3CC[C@H](C(=O)O)[C@H](OC)C3)n2)cc2c1CN(C1CCOCC1)CC2 . Reported Metabolic stability (Qh %), % hepatic blood flow? <24%

Item under review: Cc1cc(COc2c(C)cccc2-c2ccnc(N3C[C@@H]4C[C@]4(C(=O)O)C3)n2)cc2c1CN(C1CCOCC1)CC2 . Reported Metabolic stability (Qh %), % hepatic blood flow? <24%

Item under review: CO[C@@H]1CN(c2cccc(-c3cccc(C)c3OCc3ccc4c(c3C)CN(C3CCOCC3)C4)n2)CC[C@@H]1C(=O)O . Reported Metabolic stability (Qh %), % hepatic blood flow? <24%
